Known composite z-score of a selection of molecules
TARGET_OR_SYSTEM: Albumin (Bos taurus) (UniProt P02769)
Sequence (P02769 whole entry, looked up): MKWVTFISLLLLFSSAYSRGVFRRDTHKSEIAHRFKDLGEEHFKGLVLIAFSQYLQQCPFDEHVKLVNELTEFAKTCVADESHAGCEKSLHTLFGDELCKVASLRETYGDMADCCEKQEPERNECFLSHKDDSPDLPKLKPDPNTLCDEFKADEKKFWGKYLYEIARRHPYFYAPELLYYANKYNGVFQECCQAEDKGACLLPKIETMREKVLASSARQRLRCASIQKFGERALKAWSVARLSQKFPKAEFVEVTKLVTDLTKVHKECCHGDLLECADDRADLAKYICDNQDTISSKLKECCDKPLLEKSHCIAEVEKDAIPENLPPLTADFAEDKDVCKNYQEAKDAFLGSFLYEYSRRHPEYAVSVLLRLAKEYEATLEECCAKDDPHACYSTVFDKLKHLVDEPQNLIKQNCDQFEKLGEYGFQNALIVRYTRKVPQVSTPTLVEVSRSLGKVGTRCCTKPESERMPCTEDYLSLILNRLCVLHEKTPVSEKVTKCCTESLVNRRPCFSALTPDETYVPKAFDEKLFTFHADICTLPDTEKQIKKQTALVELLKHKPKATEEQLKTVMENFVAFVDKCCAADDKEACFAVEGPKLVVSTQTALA
TEST_METHOD_NOTES: bovine serum albumin binders on microarray, profiling panel, artefact control for SMM control protein annotation, biochemical, small-molecule microarray, Alexa647 label, 635/667 nm fluorescence (AID 1118);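 also: score merges 667 nm emission intensity and signal-to-noise per printed compound spot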
CONDITION_CONTEXT: BSA-A647 binding, fluorescence 635 nm, higher = more signal
MEASUREMENT_TYPE: composite z-score

[[record]]
structure_as_smiles = "C=CCNC(=O)[C@H]1[C@@H]2C(=O)O[C@@H](c3ccccc3)[C@@H](c3ccccc3)N2[C@@H](c2ccc(O)cc2)[C@]12C(=O)N(C(=O)OCCOC)c1ccc(C#CC3=CCCCC3)cc12"
measurement_type = "composite z-score"
recorded_result = 0.633

[[record]]
structure_as_smiles = "CO[C@@H]1COC(=O)CCC[C@@H](C)[C@H](OC)COC(=O)[C@H](Cc2ccccc2)NC(=O)CC=C[C@H]1C"
measurement_type = "composite z-score"
recorded_result = -0.603

[[record]]
structure_as_smiles = "CC(C)OC(=O)C=C1C[C@@H](c2ccc(C#N)cc2)O[C@@H](c2ccc(C#N)cc2)O1"
measurement_type = "composite z-score"
recorded_result = 0.992

[[record]]
structure_as_smiles = "Cn1c(=O)n2n(c1=O)[C@H]1[C@H](O)[C@@H]3O[C@@H]3C(=NOC[C@@H](O)COCc3ccco3)[C@H]1CC2"
measurement_type = "composite z-score"
recorded_result = 0.125

[[record]]
structure_as_smiles = "C=CC[C@]1(C(=O)NCc2ccccc2)N=C(c2ccc(OCCCO)cc2)O[C@H]1c1ccccc1"
measurement_type = "composite z-score"
recorded_result = 0.866

[[record]]
structure_as_smiles = "CN(C)CCCNC(=O)[C@@H]1c2ccccc2C(=O)N(Cc2cc(F)cc(C(F)(F)F)c2)[C@H]1c1ccc(CO)cc1"
measurement_type = "composite z-score"
recorded_result = 0.277

[[record]]
structure_as_smiles = "CN(C)C(=O)[C@@]1(Cc2ccccc2)N=C(c2ccc(OCCCO)cc2)O[C@H]1c1ccccc1CN=[N+]=[N-]"
measurement_type = "composite z-score"
recorded_result = 0.968

[[record]]
structure_as_smiles = "CC(CCC(=O)OC[C@H]1O[C@H](C#Cc2ccccc2)C=C[C@@H]1Oc1ccc(C)cc1)=NOC[C@@H](O)COCc1ccco1"
measurement_type = "composite z-score"
recorded_result = -0.515


====

TARGET_OR_SYSTEM: Follistatin (Homo sapiens) (UniProt P19883)
Sequence (P19883 whole entry, looked up): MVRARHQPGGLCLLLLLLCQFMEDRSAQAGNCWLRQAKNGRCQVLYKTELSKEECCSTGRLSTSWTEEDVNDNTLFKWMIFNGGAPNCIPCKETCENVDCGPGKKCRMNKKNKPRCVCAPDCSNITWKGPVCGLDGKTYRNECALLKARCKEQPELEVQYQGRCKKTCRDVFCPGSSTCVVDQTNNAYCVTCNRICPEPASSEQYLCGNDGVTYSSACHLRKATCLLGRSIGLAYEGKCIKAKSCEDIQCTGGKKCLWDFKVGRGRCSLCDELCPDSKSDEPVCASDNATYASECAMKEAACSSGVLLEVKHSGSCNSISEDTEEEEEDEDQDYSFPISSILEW
TEST_METHOD_NOTES: follistatin binders on small-molecule microarrays, primary screen, biochemical, small-molecule microarray, 635/667 nm fluorescence (AID 1132)
CONDITION_CONTEXT: FST binding, 635 nm fluorescence, higher = more signal
Known composite z-score of a selection of compounds
MEASUREMENT_TYPE: composite z-score

[[record]]
structure_as_smiles = "Cc1cc(C)c(-c2cc([C@H](C)ON=C3[C@H]4CCn5c(=O)n(-c6ccccc6)c(=O)n5[C@H]4[C@H](O)[C@@H]4O[C@H]34)on2)c(C)c1"
recorded_result = 0.692

[[record]]
structure_as_smiles = "CC(C)=CCCC(C)=CCON=C1[C@H]2CCn3c(=O)n(Cc4cc5c(cc4Cl)OCO5)c(=O)n3[C@H]2[C@H](O)[C@@H]2O[C@H]12"
recorded_result = 0.908

[[record]]
structure_as_smiles = "Cc1ccc(S[C@]2(C(=O)O)CC(=O)N(Cc3ccccc3)[C@@H]2c2ccc(CO)cc2I)cc1"
recorded_result = 0.023

[[record]]
structure_as_smiles = "O=C1c2ccccc2[C@@]2(Cc3ccccc3N(C3CC3)C2=O)[C@H](c2ccc(CO)cc2)N1Cc1ccccc1C(F)(F)F"
recorded_result = -1.41

[[record]]
structure_as_smiles = "NC(=O)NCC#Cc1ccc2c(c1)[C@]1(C(=O)N2)[C@H](c2ccc(O)cc2)N2[C@H](c3ccccc3)[C@H](c3ccccc3)OC(=O)[C@H]2[C@@H]1C(=O)N1CCCCCCC1"
recorded_result = 1.34

[[record]]
structure_as_smiles = "CC(=O)OC[C@H]1O[C@H](CC=NOC[C@@H](C)[C@H](OCc2ccccc2)C(C)C)C=C[C@@H]1OC(C)=O"
recorded_result = 0.264

[[record]]
structure_as_smiles = "C=C(CCCC)C(=O)CC[C@@H](OC(C)=O)c1cccc(OCCO)c1"
recorded_result = 1.3


====

TEST_METHOD_NOTES: binders of probe aHhip on microarray, primary screen, stem cell growth factor project, biochemical, small-molecule microarray, fluorescence 635/667 (AID 1087);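 also: score merges spot fluorescence at 667nm with spot signal to noise ratio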
CONDITION_CONTEXT: higher = more signal
MEASUREMENT_TYPE: composite z-score

[[record]]
structure_as_smiles = "COCCCNC(=O)[C@]1(Cc2ccccc2)N=C(c2ccc(OCCCO)cc2)O[C@@H]1c1ccccc1"
recorded_result = -0.0645

[[record]]
structure_as_smiles = "CC(=O)OC[C@H]1O[C@H](CCON=C[C@@H](C)[C@H](OCc2ccccc2)C(C)C)C=C[C@@H]1OC(C)=O"
recorded_result = 0.312

[[record]]
structure_as_smiles = "C[C@H](c1ccccc1)N1C(=O)[C@H]2[C@H]3[C@H](O)[C@H](O)CC(=O)[C@@H]3CC[C@H]2C1=O"
recorded_result = 0.0274

[[record]]
structure_as_smiles = "C[C@@H]1CC[C@H]2C(=O)O[C@H](COc3ccc(C(C)(C)C)cc3)CN2[C@H]1c1ccc(Br)cc1"
recorded_result = -0.0296


====

TARGET_OR_SYSTEM: Streptavidin (Streptomyces avidinii) (UniProt P22629)
Sequence (P22629 whole entry, looked up): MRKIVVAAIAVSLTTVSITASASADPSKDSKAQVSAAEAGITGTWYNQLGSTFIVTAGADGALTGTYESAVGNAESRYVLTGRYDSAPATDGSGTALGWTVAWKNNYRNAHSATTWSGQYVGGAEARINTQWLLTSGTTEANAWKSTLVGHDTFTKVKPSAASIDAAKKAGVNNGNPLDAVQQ
TEST_METHOD_NOTES: streptavidin binders on small-molecule microarray, primary screen, artefact control for SMM compound annotation, biophysical, 635/667 nm fluorescence (AID 1147);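 also: signal reflects streptavidin binding to arrayed compounds as a control protein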
CONDITION_CONTEXT: streptavidin binding, higher = more signal
Returns yes (1) if the recorded composite z-score is greater than or equal to -0.2, and no (0) otherwise.

[[record]]
molecule = "C[C@@H]1C=CCC(=O)OC[C@H](C)C(=O)N[C@@H](C)C(=O)OC1"
assigned_class = "yes (1)"

[[record]]
molecule = "NC(=O)NCC#Cc1ccc2c(c1)[C@]1(C(=O)N2)[C@H](c2ccc(O)cc2)N2[C@H](c3ccccc3)[C@H](c3ccccc3)OC(=O)[C@H]2[C@@H]1C(=O)N1CCCCCCC1"
assigned_class = "yes (1)"

[[record]]
molecule = "COC(=O)CC=C[C@@H](C)[C@@H](C=NO[C@@H](C)c1cc(-c2c(C)cc(C)cc2C)no1)OC"
assigned_class = "no (0)"

[[record]]
molecule = "COCCCNC(=O)[C@]1(Cc2ccccc2)N=C(c2ccc(OCCCO)cc2)O[C@@H]1c1ccccc1"
assigned_class = "yes (1)"

[[record]]
molecule = "COC(=O)[C@@H]1CC[C@H](C)[C@@H](c2ccc(C)cc2)N1C(=O)c1ccc(C=NOC[C@@H](O)COCc2ccco2)cc1"
assigned_class = "no (0)"

[[record]]
molecule = "Cn1c(=O)n2n(c1=O)[C@H]1[C@H](O)[C@@H]3O[C@@H]3C(=NOC[C@@H](O)COCc3ccco3)[C@H]1CC2"
assigned_class = "yes (1)"

[[record]]
molecule = "CCOC(=O)CCN1C(=O)[C@H]2[C@H]3[C@H](O)[C@H](O)CC(=NOC[C@@H](O)COCc4ccco4)[C@@H]3CC[C@H]2C1=O"
assigned_class = "yes (1)"

[[record]]
molecule = "COCCOC(=O)N1C(=O)[C@@]2(c3cc(C#Cc4ccc(OC)cc4)ccc31)[C@H](C(=O)N1CCN(c3ncccn3)CC1)[C@H]1C(=O)O[C@H](c3ccccc3)[C@H](c3ccccc3)N1[C@@H]2c1ccc(OCCO)cc1"
assigned_class = "yes (1)"

[[record]]
molecule = "O=C(NN=C1C[C@@H](O)[C@@H](O)[C@@H]2[C@@H]3C(=O)N(c4cccc(Oc5ccccc5)c4)C(=O)[C@@H]3CC[C@@H]12)OCc1ccccc1"
assigned_class = "yes (1)"

[[record]]
molecule = "CC(C)=CCCC(C)=CCON=C1[C@H]2CCn3c(=O)n(Cc4cc5c(cc4Cl)OCO5)c(=O)n3[C@H]2[C@H](O)[C@@H]2O[C@H]12"
assigned_class = "yes (1)"

[[record]]
molecule = "CCOC(=O)CCN1C(=O)[C@H]2[C@H]3[C@H](O)[C@H](O)CC(=NOC[C@@H](O)COCc4ccco4)[C@H]3CC[C@H]2C1=O"
assigned_class = "yes (1)"

[[record]]
molecule = "CCCCCN1CC=CC23O[C@@H]4C=CCOC(=O)[C@@H]4[C@H]2C(=O)N(C(CO)C(C)C)[C@@H]3C1=O (stereo not given in full)"
assigned_class = "no (0)"

[[record]]
molecule = "C#C[C@@H]1Oc2ccccc2S(=O)(=O)N2CCC[C@H]12"
assigned_class = "yes (1)"

[[record]]
molecule = "COC(=O)CC1OC1[C@H](C)[C@@H](OC)C(C)C (stereo not given in full)"
assigned_class = "no (0)"

